// provenance: patent US5972599

- TESTED_ON: IL-4 (Homo sapiens, UniProt P05112 P05112:25-153)
- Sequence (P05112 25-153, one chain of several): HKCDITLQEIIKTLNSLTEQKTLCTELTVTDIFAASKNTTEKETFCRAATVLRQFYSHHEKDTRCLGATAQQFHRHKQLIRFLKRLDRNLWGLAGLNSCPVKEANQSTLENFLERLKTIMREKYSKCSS
- EXPERIMENTAL_DETAILS: filter; full-length
- ASSAY_CONTEXT: tags: R&D Systems
pKd: −log10 of the molar value.

{"columns": ["BINDER", "pKd"],
 "data": [
  ["IL-4 2'F-18 (ssRNA, 2'-F all C and U) RNA: GGGAGACAAGAAUAAACGCUCAAGCUGCCCAAGGAAUUUAACUUGGACCGCGAUCUGGAGUCUUCGACAGGAGGCUCACAACAGGC", 7.37],
  ["IL-4 2'F/NH2-18 (ssRNA, 2'-F all C, 2'-NH2 all U) RNA: GGGAGACAAGAAUAAACGCUCAACCGCCUGCGAUAGUUAGACCGUUGAGCUGAGAGCAACACUUUCGACAGGAGGCUCACAACAGGC", 7.52],
  ["IL-4 2'F/NH2-28 (ssRNA, 2'-F all C, 2'-NH2 all U) RNA: GGGAGACAAGAAUAAACGCUCAAGAUCCUGCGACGCCAGGGGUGGAUAGGGGGAAGGGAGCGGUUCGACAGGAGGCUCACAACAGGC", 8.06],
  ["IL-4 2'F-12 (ssRNA, 2'-F all C and U) RNA: GGGAGACAAGAAUAAACGCUCAAGUCUGACUAUUGGGGCGCCACAAUAUCAACGGCUGUACUUCGACAGGAGGCUCACAACAGGC", 7.52],
  ["IL-4 2'F/NH2-9 (ssRNA, 2'-F all C, 2'-NH2 all U) RNA: GGGAGACAAGAAUAAACGCUCAAAGAGUGCAGGUCUGGGGCGCCACAAUUACAACGGCAAUAAUUCGACAGGAGGCUCACAACAGGC", 8.48],
  ["IL-4 2'NH2-29 (ssRNA, 2'-NH2 all C and U) RNA: GGGAGACAAGAAUAAACGCUCAAGAGCUGGUGAGCCACGUAUACGGCCUUAGGGGCUUGGGCGUUCGACAGGAGGCUCACAACAGGC", 8.08],
  ["IL-4 2'F-21 (ssRNA, 2'-F all C and U) RNA: GGGAGACAAGAAUAAACGCUCAAAGGAGCGCCAUGAAGCAAAGGGAGGAUUGUGGUGGAAGGCUUCGACAGGAGGCUCACAACAGGC", 7.96]
]}
